system: NCI-H1341 complex spheroids, percent test/control; test: Anticancer human tumor NCI-H1341 cell line growth inhibition [AhR]; details: second compound 3.16 µM; first compound 0.0316 µM; stronger effect = lower value;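 also: spheroids exposed to agents for seven days before readout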
endpointName: viability, T/C (%)
Give the number; % is assumed, so skip it.

Give the reported viability, T/C for NS(=O)(=O)OCC1CC(n2ccc3c(NC4CCc5ccccc54)ncnc32)CC1O (centres undefined) + Cc1cncc(-c2nc(NCCc3c[nH]c4ccccc34)c3ncn(C(C)C)c3n2)c1 (system: NCI-H1341 complex spheroids, percent test/control).
49.4

What do you get for Cn1ncnc1C1c2n[nH]c(=O)c3cc(F)cc(c23)NC1c1ccc(F)cc1 (centres undefined) + CC(CO)NC(=O)c1cc(-c2ccc(Cl)cc2)nn(-c2cnn(C)c2)c1=O ?
76.2

Also CC[C@@]1(O)C(=O)OCc2c1cc1n(c2=O)Cc2cc3c(CN(C)C)c(O)ccc3nc2-1 + Cc1cncc(-c2nc(NCCc3c[nH]c4ccccc34)c3ncn(C(C)C)c3n2)c1 ?
37.1

Then NS(=O)(=O)OCC1CC(n2ccc3c(NC4CCc5ccccc54)ncnc32)CC1O (centres undefined) + CC(CO)NC(=O)c1cc(-c2ccc(Cl)cc2)nn(-c2cnn(C)c2)c1=O ?
32.1

Could you do the same for COc1cccc2c1C(=O)c1c(O)c3c(c(O)c1C2=O)CC(O)(C(=O)CO)CC3OC1CC(N)C(O)C(C)O1 (centres undefined) + CC(CO)NC(=O)c1cc(-c2ccc(Cl)cc2)nn(-c2cnn(C)c2)c1=O , please?
43.9

Entry to check: O=C(C=Cc1cccc(S(=O)(=O)Nc2ccccc2)c1)NO + Cc1ccccc1N=Nc1ccc(NC(=O)c2ccnn2C)c(C)c1
77.1

Same question for O=C(C=Cc1cccc(S(=O)(=O)Nc2ccccc2)c1)NO + CC(CO)NC(=O)c1cc(-c2ccc(Cl)cc2)nn(-c2cnn(C)c2)c1=O please.
78.9

Try the compound COc1cccc2c1C(=O)c1c(O)c3c(c(O)c1C2=O)CC(O)(C(=O)CO)CC3OC1CC(N)C(O)C(C)O1 (centres undefined) + Cc1cncc(-c2nc(NCCc3c[nH]c4ccccc34)c3ncn(C(C)C)c3n2)c1
38.9

# repeat for CC(C)c1c(-c2ccccc2)nc2c(C#N)c[nH]n2c1=O + Cc1ccccc1N=Nc1ccc(NC(=O)c2ccnn2C)c(C)c1
72.2

Another: Nc1ncn(C2CC(O)C(CO)O2)c(=O)n1 (centres undefined) + Cc1ccccc1N=Nc1ccc(NC(=O)c2ccnn2C)c(C)c1
68.5

How about COc1ccc([C@@H](O)c2cc(-c3ncnc4cc(N5CCOCC5)ccc34)c(F)cc2Cl)nn1 + CC(CO)NC(=O)c1cc(-c2ccc(Cl)cc2)nn(-c2cnn(C)c2)c1=O ?
79.6

Now consider O=C(C=Cc1cccc(S(=O)(=O)Nc2ccccc2)c1)NO + Cc1cncc(-c2nc(NCCc3c[nH]c4ccccc34)c3ncn(C(C)C)c3n2)c1 .
71.2

Another: NS(=O)(=O)OCC1CC(n2ccc3c(NC4CCc5ccccc54)ncnc32)CC1O (centres undefined) + Cc1ccccc1N=Nc1ccc(NC(=O)c2ccnn2C)c(C)c1
51.5

Queued: CC(C)c1c(-c2ccccc2)nc2c(C#N)c[nH]n2c1=O + CC(CO)NC(=O)c1cc(-c2ccc(Cl)cc2)nn(-c2cnn(C)c2)c1=O
84.5

---

system: NCI-H1341 complex spheroids, percent test/control; test: Anticancer human tumor NCI-H1341 cell line growth inhibition [AhR]; conditions: second compound 10 µM; first compound 0.0949 µM; stronger effect = lower value;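 also: spheroids exposed to agents for seven days before readout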
endpointName: viability, T/C (%)
Respond with the bare value in %.

Quick one: viability, T/C for Nc1ncn(C2CC(O)C(CO)S2)c(=O)n1 (stereo not drawn) + Cc1cncc(-c2nc(NCCc3c[nH]c4ccccc34)c3ncn(C(C)C)c3n2)c1 ?
33.1

Same again, this time with O=C(C=Cn1cnc(-c2cc(C(F)(F)F)cc(C(F)(F)F)c2)n1)NNc1cnccn1 + Cc1cncc(-c2nc(NCCc3c[nH]c4ccccc34)c3ncn(C(C)C)c3n2)c1
17.4

# repeat for CCc1c2c(nc3ccc(O)cc13)-c1cc3c(c(=O)n1C2)COC(=O)[C@]3(O)CC + Cc1cncc(-c2nc(NCCc3c[nH]c4ccccc34)c3ncn(C(C)C)c3n2)c1
4.28

---

test system: NCI-H1341 complex spheroids, percent test/control; assay: Anticancer human tumor NCI-H1341 cell line growth inhibition [AhR]; details: second compound 1 µM; first compound 3.16 µM; stronger effect = lower value;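 also: spheroids exposed to agents for seven days before readout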
Would you mind telling me the reported viability, T/C of each entry?
Please state the figure in %; there is no need to write the unit.

Any idea what viability, T/C was measured for O=C(c1cc(Cc2n[nH]c(=O)c3ccccc23)ccc1F)N1CCN(C(=O)C2CC2)CC1 + Cc1ccccc1N=Nc1ccc(NC(=O)c2ccnn2C)c(C)c1 ?
81.2

Same lookup for O=C(c1cc(Cc2n[nH]c(=O)c3ccccc23)ccc1F)N1CCN(C(=O)C2CC2)CC1 + CC(CO)NC(=O)c1cc(-c2ccc(Cl)cc2)nn(-c2cnn(C)c2)c1=O , please.
86.8

What about this compound? CC1COCCN1c1cc(C2(S(C)(=N)=O)CC2)nc(-c2ccnc3[nH]ccc23)n1 (stereo not drawn) + CC(CO)NC(=O)c1cc(-c2ccc(Cl)cc2)nn(-c2cnn(C)c2)c1=O
35.5

---

test system: NCI-H1341 complex spheroids, percent test/control; experiment: Anticancer human tumor NCI-H1341 cell line growth inhibition [AhR]; conditions: curve of first compound; second compound 1 µM;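 also: spheroids exposed to agents for seven days before readout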
Would you mind telling me the reported pIC50 of each entry?
# pIC50: negative log10 of molar concentration; output just the value

// pIC50 lookup, key: COc1cc(C2c3cc4c(cc3C(OC3OC5COC(C)OC5C(O)C3O)C3COC(=O)C23)OCO4)cc(OC)c1O (stereo unspecified) + Cc1cncc(-c2nc(NCCc3c[nH]c4ccccc34)c3ncn(C(C)C)c3n2)c1
6.55

Follow-up item: CC1COCCN1c1cc(C2(S(C)(=N)=O)CC2)nc(-c2ccnc3[nH]ccc23)n1 (stereo unspecified) + Cc1cncc(-c2nc(NCCc3c[nH]c4ccccc34)c3ncn(C(C)C)c3n2)c1
5.46

Please answer likewise for CCc1c2c(nc3ccc(O)cc13)-c1cc3c(c(=O)n1C2)COC(=O)[C@]3(O)CC + CC(CO)NC(=O)c1cc(-c2ccc(Cl)cc2)nn(-c2cnn(C)c2)c1=O
8.02

Continue with Nc1ccccc1NC(=O)c1ccc(CNC(=O)OCc2cccnc2)cc1 + CC(CO)NC(=O)c1cc(-c2ccc(Cl)cc2)nn(-c2cnn(C)c2)c1=O
6.73

Now the compound NS(=O)(=O)OCC1CC(n2ccc3c(NC4CCc5ccccc54)ncnc32)CC1O (stereo unspecified) + Cc1ccccc1N=Nc1ccc(NC(=O)c2ccnn2C)c(C)c1
6.95

Item: COc1cccc2c1C(=O)c1c(O)c3c(c(O)c1C2=O)CC(O)(C(=O)CO)CC3OC1CC(N)C(O)C(C)O1 (stereo unspecified) + Cc1ccccc1N=Nc1ccc(NC(=O)c2ccnn2C)c(C)c1
6.78

---

test system: NCI-H1341 complex spheroids, percent test/control; assay: Anticancer human tumor NCI-H1341 cell line growth inhibition [AhR]; conditions: curve of first compound; second compound 1 µM;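 also: spheroids exposed to agents for seven days before readout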
endpointName: pIC50
Entry type: numeric. Quantity: pIC50, the -log10 of concentration in molar units.

Recorded pIC50 of CC1COCCN1c1cc(-c2ccnn2C)c2ccnc(-c3ccn[nH]3)c2n1 (stereo unspecified) + Cc1cncc(-c2nc(NCCc3c[nH]c4ccccc34)c3ncn(C(C)C)c3n2)c1 , please.
7.45

What do you get for CC1COCCN1c1cc(-c2ccnn2C)c2ccnc(-c3ccn[nH]3)c2n1 (stereo unspecified) + CC(CO)NC(=O)c1cc(-c2ccc(Cl)cc2)nn(-c2cnn(C)c2)c1=O ?
7.61

Try the compound COc1ccc([C@@H](O)c2cc(-c3ncnc4cc(N5CCOCC5)ccc34)c(F)cc2Cl)nn1 + Cc1ccccc1N=Nc1ccc(NC(=O)c2ccnn2C)c(C)c1
6.20

---

system: NCI-H1341 complex spheroids, percent test/control; assay: Anticancer human tumor NCI-H1341 cell line growth inhibition [AhR]; details: curve of first compound; second compound 1 µM;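 also: spheroids exposed to agents for seven days before readout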
endpointName: IC50 (nM)
Form entry: value (nM) — number only.

Recall the recorded IC50 for CC1(C)CCC(CN2CCN(c3ccc(C(=O)NS(=O)(=O)c4ccc(NCC5CCOCC5)c([N+](=O)[O-])c4)c(Oc4cnc5[nH]ccc5c4)c3)CC2)=C(c2ccc(Cl)cc2)C1 + CC(CO)NC(=O)c1cc(-c2ccc(Cl)cc2)nn(-c2cnn(C)c2)c1=O with NCI-H1341 complex spheroids, percent test/control and state it.
1710

Now try O=C(C=Cc1cccc(S(=O)(=O)Nc2ccccc2)c1)NO + Cc1ccccc1N=Nc1ccc(NC(=O)c2ccnn2C)c(C)c1 .
457

Item: COc1ccc([C@@H](O)c2cc(-c3ncnc4cc(N5CCOCC5)ccc34)c(F)cc2Cl)nn1 + CC(CO)NC(=O)c1cc(-c2ccc(Cl)cc2)nn(-c2cnn(C)c2)c1=O
1060

Please answer likewise for CCc1c2c(nc3ccc(O)cc13)-c1cc3c(c(=O)n1C2)COC(=O)[C@]3(O)CC + Cc1ccccc1N=Nc1ccc(NC(=O)c2ccnn2C)c(C)c1
17.2
